assayMetric: melting point

Br.CC1=C(c2cc3cccc(Cl)c3s2)N2CCN=C2S1: 294 to 295 °C
Br.CCC1=C(c2cc3cc(Cl)ccc3s2)N2CCN=C2S1: 282 to 284 °C
Br.CC1=C(c2cc3c(Cl)cccc3s2)N2CCCN=C2S1: 236 to 238 °C
CCC1=C(c2ccc3sccc3c2)N2CCN=C2S1.O=C(O)/C=C/C(=O)O: 145 to 150 °C
CC1=C(c2cccc3ccsc23)N2CCN=C2S1.Cl: 210 to 212 °C
Br.CC1=C(c2cc3c(F)cccc3s2)N2CCN=C2S1: 224 to 226 °C
Cc1cccc2sc(C3=CSC4=NCCN34)cc12.Cl: 238 to 245 °C
Br.CC1=C(c2ccc(F)c3sccc23)N2CCN=C2S1: 265 to 267 °C
OCC1=C(c2ccc3sccc3c2)N2CCN=C2S1: 149 to 150 °C
Cl.Fc1cccc2sc(C3=CSC4=NCCN34)cc12: 220 to 224 °C

Consider the following items and state reported melting point for each.
1. CC1=C(c2cccc3sc(C)cc23)N2CCN=C2S1.Cl
2. Br.Clc1cccc2sc(C3=CSC4=NCCN34)cc12
3. CSC1=C(c2cc3ccccc3s2)N2CCN=C2S1

Completion:
["271 °C", "273 to 274 °C", "95 to 97 °C"]

###

Target: 5-HT1A receptors (Rattus norvegicus, UniProt P19327)
Sequence (P19327 1-422): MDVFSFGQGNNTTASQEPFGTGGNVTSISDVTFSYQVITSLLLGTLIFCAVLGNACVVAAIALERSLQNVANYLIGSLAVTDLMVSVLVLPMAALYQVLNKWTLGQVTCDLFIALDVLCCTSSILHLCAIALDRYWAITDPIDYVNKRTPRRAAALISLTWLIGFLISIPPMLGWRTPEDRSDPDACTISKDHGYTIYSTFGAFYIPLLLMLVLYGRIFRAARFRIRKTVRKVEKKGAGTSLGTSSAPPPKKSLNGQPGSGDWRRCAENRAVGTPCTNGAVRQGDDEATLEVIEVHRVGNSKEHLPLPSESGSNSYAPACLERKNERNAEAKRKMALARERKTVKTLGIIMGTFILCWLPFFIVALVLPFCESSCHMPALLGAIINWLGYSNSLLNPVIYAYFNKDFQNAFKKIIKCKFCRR
So I've got a bunch of compounds here, and I need their pKi values.
One number for each entry, as −log10 of the molar value.

Consider the following items and state reported pKi for each.
1. C1=C(c2cccc3sccc23)N2CCN=C2S1.Cl [Example 2, hydrochloride]
2. CC(C)C1=C(c2cccc3sccc23)N2CCN=C2S1.O=C(O)/C=C/C(=O)O [Example 35, fumarate]
3. CCC1=C(c2ccc3sccc3c2)N2CCN=C2S1.O=C(O)/C=C/C(=O)O [Example 31, fumarate]
4. Br.CC1=C(c2ccc(F)c3sccc23)N2CCN=C2S1 [Example 38, hydrobromide]
5. CSC1=C(c2cc3ccccc3s2)N2CCN=C2S1 [Example 19]
6. Br.CC1=C(c2cc3c(Cl)cccc3s2)N2CCN=C2S1 [Example 10, hydrobromide]
7. Br.CCC1=C(c2cccc3sccc23)N2CCN=C2S1 [Example 13, hydrobromide]

Completion:
1: 7.07; 2: 6.82; 3: 6.99; 4: 7.54; 5: 6.87; 6: 8.23; 7: 7.81

Consider the following items and state reported pKi for each.
1. Br.CC1=C(c2cccc3sccc23)N2CCN=C2S1 [Example 8, hydrobromide]
2. OCC1=C(c2cccc3sccc23)N2CCN=C2S1 [Example 3]
3. Br.CC1=C(c2cc3ccccc3s2)N2CCN=C2S1 [Example 6, hydrobromide]
4. Br.CC1=C(c2ccc3ccsc3c2)N2CCN=C2S1 [Example 37, hydrobromide]

Completion:
1. 7.84
2. 7.69
3. 8.01
4. 8.68

###

molecular target: 5-HT1A receptors (Rattus norvegicus, UniProt P19327); construct: Hippocampal tissue from the brains of male Sprague-Dawley rats; from tissue; host or cells: rat hippocampal membranes; assay: 5-HT1A binding: inhibition of [3H]8-OH-DPAT binding to rat hippocampal membranes; conditions: read-out: 5-HT1A % displacement at 10^−6 M
assayMetric: inhibition at 1 µM (%)
Answers are plain numbers, in %.

Br.CCC1=C(c2cc3cc(Cl)ccc3s2)N2CCN=C2S1 [Example 11, hydrobromide]: 80
CSC1=C(c2cccc3sccc23)N2CCN=C2S1.Cl [Example 22, hydrochloride]: 88
Cc1cccc2sc(C3=CSC4=NCCN34)cc12.Cl [Example 14, hydrochloride]: 64
Br.CC1=C(c2cc3c(C)cccc3s2)N2CCN=C2S1 [Example 16, hydrobromide]: 97
Br.CC1=C(c2cc3c(Cl)c(Cl)ccc3s2)N2CCN=C2S1 [Example 24, hydrobromide]: 76
Br.Clc1cccc2sc(C3=CSC4=NCCN34)cc12 [Example 1, hydrobromide]: 60
Br.CC1(c2cc3cc(F)ccc3s2)CSC2=NCCN21 (centres unmarked) [Example 27, hydrobromide]: 88

Now look at this entry.
Prompt: Query: inhibition at 1 µM; subject: Br.CC1=C(c2cc3cccc(Cl)c3s2)N2CCN=C2S1 [Example 20, hydrobromide]
Completion: 98

###

molecular target: noradrenaline (NA) reuptake sites (Rattus norvegicus); construct: Frontal cortical tissue from the brains of male Charles River rats; assay: NA uptake: displacement of [3H]nisoxetine from noradrenaline reuptake sites, rat frontal cortical membranes; conditions: [3H]nisoxetine 0.6 nM, rat frontal cortical membranes; fit to data from three experiments
Sequence (Q63380 1-617): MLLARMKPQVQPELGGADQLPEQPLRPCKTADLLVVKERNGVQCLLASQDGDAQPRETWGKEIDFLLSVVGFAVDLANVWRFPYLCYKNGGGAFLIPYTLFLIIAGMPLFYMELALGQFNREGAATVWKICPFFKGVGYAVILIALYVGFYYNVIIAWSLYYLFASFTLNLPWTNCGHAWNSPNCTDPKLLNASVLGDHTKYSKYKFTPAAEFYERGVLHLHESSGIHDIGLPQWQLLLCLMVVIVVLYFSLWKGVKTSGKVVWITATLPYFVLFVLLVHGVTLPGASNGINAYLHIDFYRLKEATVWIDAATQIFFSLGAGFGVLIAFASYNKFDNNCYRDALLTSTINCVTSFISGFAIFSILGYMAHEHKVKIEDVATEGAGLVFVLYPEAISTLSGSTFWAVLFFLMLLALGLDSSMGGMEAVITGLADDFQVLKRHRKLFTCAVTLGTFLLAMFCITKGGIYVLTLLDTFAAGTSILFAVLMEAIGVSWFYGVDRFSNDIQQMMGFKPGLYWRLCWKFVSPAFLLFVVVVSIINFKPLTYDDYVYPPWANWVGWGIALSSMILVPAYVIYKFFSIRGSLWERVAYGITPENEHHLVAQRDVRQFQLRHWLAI
In plain terms, low Ki, meaning strictly below 7 nM, gives condition met, and everything else gives condition not met.

Known results for molecules:
CC1=C(c2cccc3ccsc23)N2CCN=C2S1.Cl [Example 23, hydrochloride]: condition met
CSC1=C(c2cccc3sccc23)N2CCN=C2S1.Cl [Example 22, hydrochloride]: condition met
CCC1=C(c2ccc3sccc3c2)N2CCN=C2S1.O=C(O)/C=C/C(=O)O [Example 31, fumarate]: condition met

Prompt: Lab note: Ki threshold 7 nM. Does this molecule come in strictly under it? Br.CCC1=C(c2cc3c(Cl)cccc3s2)N2CCN=C2S1 [Example 18, hydrobromide]
Completion: condition not met

Prompt: Lab note: Ki threshold 7 nM. Does this molecule come in strictly under it? Br.CC1=C(c2ccc3ccsc3c2)N2CCN=C2S1 [Example 37, hydrobromide]
Completion: condition not met

###

So I've got a bunch of compounds here, and I need their pKi values.
biological target: muscarinic receptors; experiment: Muscarinic binding: displacement of [3H]N-methylscopolamine, rat frontal cortical membranes; settings: [3H]N-methylscopolamine 0.15 nM, rat frontal cortical membranes
Give bare numbers, as −log10 of the molar value.

Examples from the recorded data:
CC(C)C1=C(c2cccc3sccc23)N2CCN=C2S1.O=C(O)/C=C/C(=O)O [Example 35, fumarate]: 6.31
Br.CCC1=C(c2cccc3sccc23)N2CCN=C2S1 [Example 13, hydrobromide]: 6.43
Br.c1cc(C2=C(C3CC3)SC3=NCCN32)c2ccsc2c1 [Example 34, hydrobromide]: 7.12
Br.C=CCC1=C(c2cccc3sccc23)N2CCN=C2S1 [Example 36, hydrobromide]: 7.18
CC(C)C1=C(c2ccc3sccc3c2)N2CCN=C2S1: 6.10

Now look at this entry.
Prompt: Query: pKi; subject: CSC1=C(c2cccc3sccc23)N2CCN=C2S1.Cl [Example 22, hydrochloride]
Completion: 6.36

###

molecular target: 5-HT1A receptors (Rattus norvegicus, UniProt P19327); construct: Hippocampal tissue from the brains of male Sprague-Dawley rats; from tissue; host or cells: rat hippocampal membranes; experiment: 5-HT1A binding: inhibition of [3H]8-OH-DPAT binding to rat hippocampal membranes; conditions: read-out: 5-HT1A % displacement at 10^−6 M
Label 1 (yes) when inhibition at 1 µM is at or above 80%; otherwise label 0 (no).

Prompt: Quick check, inhibition at 1 µM >= 80%? CCC1=C(c2cccc3sccc23)N2CCN=C2S1.O=C(O)/C=C/C(=O)O [Example 25, fumarate]
Completion: 1 (yes)

Prompt: Quick check, inhibition at 1 µM >= 80%? C=CC1=C(c2cccc3sccc23)N2CCN=C2S1.Cl [Example 39, hydrochloride]
Completion: 1 (yes)

Prompt: Quick check, inhibition at 1 µM >= 80%? CC1=C(c2cccc3sc(C)cc23)N2CCN=C2S1.Cl [Example 33, hydrochloride]
Completion: 1 (yes)

Prompt: Quick check, inhibition at 1 µM >= 80%? Br.COc1cccc2cc(C3=C(C)SC4=NCCN43)sc12 [Example 26, hydrobromide]
Completion: 1 (yes)

Prompt: Quick check, inhibition at 1 µM >= 80%? Cl.Fc1cccc2sc(C3=CSC4=NCCN34)cc12 [Example 5, hydrochloride]
Completion: 0 (no)

Prompt: Quick check, inhibition at 1 µM >= 80%? Br.CCC1=C(c2cc3c(Cl)cccc3s2)N2CCN=C2S1 [Example 18, hydrobromide]
Completion: 1 (yes)

###

So I've got a bunch of molecules here, and I need their Ki values.
target: 5-HT reuptake sites (Rattus norvegicus, UniProt P31652); construct: Frontal cortical tissue from the brains of male Charles River rats; experiment: 5-HT uptake: displacement of [3H]citalopram from 5-HT reuptake sites, rat frontal cortical membranes; details: [3H]citalopram 1.3 nM, rat frontal cortical membranes; fit to data from three experiments
Sequence (P31652 whole entry): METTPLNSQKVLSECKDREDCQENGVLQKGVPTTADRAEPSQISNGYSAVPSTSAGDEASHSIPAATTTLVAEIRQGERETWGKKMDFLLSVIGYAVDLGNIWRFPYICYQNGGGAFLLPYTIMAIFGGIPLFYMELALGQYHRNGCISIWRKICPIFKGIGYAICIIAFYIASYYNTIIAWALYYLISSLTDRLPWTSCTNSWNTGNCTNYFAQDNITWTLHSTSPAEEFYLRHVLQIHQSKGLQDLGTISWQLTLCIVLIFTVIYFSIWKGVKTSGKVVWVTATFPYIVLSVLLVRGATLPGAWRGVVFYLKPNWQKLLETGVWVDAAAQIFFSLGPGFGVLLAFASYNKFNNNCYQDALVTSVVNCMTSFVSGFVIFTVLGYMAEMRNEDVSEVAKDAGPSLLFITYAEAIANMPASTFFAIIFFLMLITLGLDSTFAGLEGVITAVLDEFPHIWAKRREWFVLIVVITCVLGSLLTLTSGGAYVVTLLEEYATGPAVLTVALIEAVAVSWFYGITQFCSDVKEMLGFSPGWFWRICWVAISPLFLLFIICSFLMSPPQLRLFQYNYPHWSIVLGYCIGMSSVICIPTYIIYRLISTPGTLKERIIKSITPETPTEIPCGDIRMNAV
Give bare numbers, in nM.

Examples from the recorded data:
OCC1=C(c2ccc3sccc3c2)N2CCN=C2S1: 148
CSC1=C(c2cccc3sccc23)N2CCN=C2S1.Cl [Example 22, hydrochloride]: 85
Br.CC1=C(c2cc3c(F)cccc3s2)N2CCN=C2S1 [Example 7, hydrobromide]: 127
Br.CC1=C(c2cc3c(Cl)cccc3s2)N2CCN=C2S1 [Example 10, hydrobromide]: 29.3
Br.CCC1=C(c2cccc3sccc23)N2CCN=C2S1 [Example 13, hydrobromide]: 84
Br.c1cc(C2=C(C3CC3)SC3=NCCN32)c2ccsc2c1 [Example 34, hydrobromide]: 53

Consider the following items and state reported Ki for each.
1. Br.Oc1cccc2sc(C3=CSC4=NCCN34)cc12 [Example 12, hydrobromide]
2. CCC1=C(c2ccc3sccc3c2)N2CCN=C2S1.O=C(O)/C=C/C(=O)O [Example 31, fumarate]
3. CSC1=C(c2cc3ccccc3s2)N2CCN=C2S1

Completion:
16
35
39
